# Tested on: MALME-3M melanoma
# assay: NCI-60 one-dose screen, 48 h
# details: 10 µM unless noted
Compounds without any hit were thinned out: in the full panel of roughly 83,000, 20% have a hit. Active and inactive are the calls of the source. How the source made its calls: active means growth percent below 10; inactive means the rest.
Use one of these outcomes when replying: active, inactive

Here's what some known entries look like.
>>> print(df.to_string())
                           molecular_string       cat
0  Cc1ccc(S(=O)(=O)Nn2c3c(cc(-c4nc5ccccc5s4)c2=O)CCCCCC3)cc1  inactive
1  N#C/C(=C\c1ccc([N+](=O)[O-])s1)c1nc2cc(Br)ccc2s1    active
2  CCCOc1ccc(/C=N/Nc2cc(C)nc3ccc(Br)cc23)cc1  inactive
3  COc1cc(C(=O)Nc2cc3c(cc2Oc2cc(C)cc(C)c2)C(=O)N(C)[C@@H](CC(=O)N(C)O)C(=O)N3)c(Br)c(OC)c1OC    active
4  O=C(/C=C(/C=C/c1csc2ccccc12)OB(F)F)/C=C/c1csc2ccccc12    active

Per the records of this test, what outcome belongs to O=C(Nc1ccc(NC(=O)c2cc(=O)[nH]c3ccccc23)cc1)Nc1cccc(Cl)c1 ?
inactive

Per the records of this test, what outcome belongs to O=S(=O)(NCCCNc1nccc(-c2c(-c3cccc(F)c3)nc3sccn23)n1)c1cccc2ccccc12 ?
inactive

Per the records of this test, what outcome belongs to O=C(/C=C(/C=C/c1coc2ccccc12)OB(F)F)/C=C/c1coc2ccccc12 ?
inactive

Per the records of this test, what outcome belongs to O=C(CNCCN1CCOCC1)N1c2cccc3cccc(c23)N(C(=O)CNCCN2CCOCC2)C1c1cn(-c2ccccc2)nc1-c1cccc([N+](=O)[O-])c1 ?
active

Per the records of this test, what outcome belongs to O=C1CC(=O)OC(c2ccc([N+](=O)[O-])cc2)O1 ?
active

Per the records of this test, what outcome belongs to CCCCCCNC(=O)Oc1ccc(/C(=C(\C)c2ccccc2)c2ccc(OCCCN(C)C)cc2)cc1 ?
inactive

Per the records of this test, what outcome belongs to Oc1cccc(CCc2ccc(Oc3cc(CCc4cccc(O)c4)cc(O)c3O)cc2)c1 ?
inactive
